test-system: Beta-glucuronidase (Homo sapiens) (UniProt P08236)
Sequence (whole entry): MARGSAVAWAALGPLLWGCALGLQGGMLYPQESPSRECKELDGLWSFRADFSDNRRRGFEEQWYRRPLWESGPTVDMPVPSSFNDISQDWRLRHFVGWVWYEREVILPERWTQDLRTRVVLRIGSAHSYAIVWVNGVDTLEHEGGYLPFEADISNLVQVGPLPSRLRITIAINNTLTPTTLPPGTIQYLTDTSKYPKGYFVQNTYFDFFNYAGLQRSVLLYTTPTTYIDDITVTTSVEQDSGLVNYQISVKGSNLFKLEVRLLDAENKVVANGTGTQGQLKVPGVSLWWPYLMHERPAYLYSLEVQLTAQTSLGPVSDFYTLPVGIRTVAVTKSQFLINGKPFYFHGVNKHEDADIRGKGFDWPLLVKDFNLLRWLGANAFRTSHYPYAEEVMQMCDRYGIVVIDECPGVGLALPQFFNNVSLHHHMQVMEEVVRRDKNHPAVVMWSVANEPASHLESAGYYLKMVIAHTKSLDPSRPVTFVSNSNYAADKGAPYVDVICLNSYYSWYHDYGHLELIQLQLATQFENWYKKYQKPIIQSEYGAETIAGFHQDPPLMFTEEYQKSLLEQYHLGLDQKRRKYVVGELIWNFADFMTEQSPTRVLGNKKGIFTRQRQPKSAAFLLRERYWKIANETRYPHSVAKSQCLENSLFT
protocol-text: Inhibition of beta-glucuronidase at 10 uM
The source made the active and inactive calls. The rule behind the calls is not given here.
endpoint-name: inhibition

>>> value_measured("COc1cc(OC)c(C(=O)/C=C/c2ccccc2F)c(O)c1CN1CCCCC1")
"56.6%"
>>> value_measured("COc1cc(OC)c(C(=O)/C=C/c2ccccc2Br)c(O)c1CN1CCN(C)CC1")
"42%"
>>> value_measured("COc1cc(OC)c(C(=O)/C=C/c2cccc(F)c2)c(O)c1CN1CCCCC1")
"7.06%"
>>> value_measured("COc1cc(OC)c(C(=O)/C=C/c2cccc(F)c2)c(O)c1CN1CCOCC1")
"10.8%"
>>> value_measured("COc1cc(OC)c(C(=O)/C=C/c2ccccc2F)c(O)c1CN1CCN(C)CC1")
"inactive"
>>> value_measured("COc1cc(O)c(CN2CCCC2)c(O)c1C(=O)/C=C/c1ccccc1F")
"inactive"
>>> value_measured("COc1cc(OC)c(C(=O)/C=C/c2cccc(Cl)c2)c(O)c1CN1CCCC1")
"14.8%"
>>> value_measured("COc1cc(OC)c(C(=O)/C=C/c2ccccc2Br)c(O)c1CN1CCCCC1")
"39.9%"
>>> value_measured("COc1cc(OC)c(C(=O)/C=C/c2cccc(Cl)c2)c(O)c1CN1CCOCC1")
"13.9%"
>>> value_measured("COc1cc(OC)c(C(=O)/C=C/c2ccccc2Cl)c(O)c1CN1CCCC1")
"32.4%"
>>> value_measured("COc1cc(OC)c(C(=O)/C=C/c2ccccc2Cl)c(O)c1CN1CCN(C)CC1")
"35.5%"
>>> value_measured("COc1cc(OC)c(C(=O)/C=C/c2ccccc2Cl)c(O)c1CN1CCOCC1")
"48.1%"
>>> value_measured("COc1cc(OC)c(C(=O)/C=C/c2cccc(F)c2)c(O)c1CN1CCCC1")
"19.4%"
>>> value_measured("COc1cc(OC)c(C(=O)/C=C/c2cccc(Br)c2)c(O)c1CN1CCN(C)CC1")
"75.4%"
>>> value_measured("COc1cc(OC)c(C(=O)/C=C/c2ccccc2Br)c(O)c1CN1CCCC1")
"34.7%"
>>> value_measured("COc1cc(OC)c(C(=O)/C=C/c2cccc(Cl)c2)c(O)c1CN1CCCCC1")
"66%"
>>> value_measured("COc1cc(OC)c(C(=O)/C=C/c2ccccc2F)c(O)c1CN1CCOCC1")
"21.8%"
>>> value_measured("COc1cc(OC)c(C(=O)/C=C/c2cccc(Cl)c2)c(O)c1CN1CCN(C)CC1")
"23.7%"
>>> value_measured("COc1cc(OC)c(C(=O)/C=C/c2ccccc2Br)c(O)c1CN1CCOCC1")
"32.8%"
>>> value_measured("COc1cc(OC)c(C(=O)/C=C/c2cccc(F)c2)c(O)c1CN1CCN(C)CC1")
"26.7%"
>>> value_measured("COc1cc(OC)c(C(=O)/C=C/c2cccc(Br)c2)c(O)c1CN1CCCCC1")
"15.4%"

---

test-system: Beta-glucuronidase (Homo sapiens) (UniProt P08236)
Sequence (whole entry): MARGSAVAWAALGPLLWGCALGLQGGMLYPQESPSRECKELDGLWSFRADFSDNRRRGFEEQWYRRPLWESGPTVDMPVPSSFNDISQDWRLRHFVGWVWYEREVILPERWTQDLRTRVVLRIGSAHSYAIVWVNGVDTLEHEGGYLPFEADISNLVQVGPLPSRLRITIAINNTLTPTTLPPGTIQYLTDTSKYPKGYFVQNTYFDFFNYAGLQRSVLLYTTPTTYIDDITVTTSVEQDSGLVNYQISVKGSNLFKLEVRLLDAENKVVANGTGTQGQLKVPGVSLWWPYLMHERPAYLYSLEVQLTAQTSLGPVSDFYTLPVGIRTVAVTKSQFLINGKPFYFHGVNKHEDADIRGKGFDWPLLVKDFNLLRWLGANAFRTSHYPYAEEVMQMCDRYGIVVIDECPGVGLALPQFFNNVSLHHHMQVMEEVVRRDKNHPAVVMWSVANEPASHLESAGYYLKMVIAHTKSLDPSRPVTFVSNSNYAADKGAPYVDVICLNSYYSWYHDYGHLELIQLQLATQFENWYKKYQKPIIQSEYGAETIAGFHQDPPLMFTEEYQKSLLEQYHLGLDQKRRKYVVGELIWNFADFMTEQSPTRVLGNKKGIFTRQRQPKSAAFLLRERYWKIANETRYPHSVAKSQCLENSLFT
protocol-text: Inhibition of beta-glucuronidase at 10 uM
Let's look at some molecules and their measured inhibition.
endpoint-name: inhibition (%)

>>> value_measured("COc1cc(OC)c(C(=O)/C=C/c2cccc(Br)c2)c(O)c1CN1CCCC1")
59.8
>>> value_measured("O=C(O)c1ccccc1O")
23.3
>>> value_measured("COc1cc(OC)c(C(=O)/C=C/c2cccc(Br)c2)c(O)c1CN1CCOCC1")
29.3
>>> value_measured("COc1cc(OC)c(C(=O)/C=C/c2ccccc2Cl)c(O)c1CN1CCCCC1")
31.2

---

protocol-text: Inhibition of trypsin at 10 uM
endpoint-name: inhibition (%)

>>> value_measured("COc1cc(OC)c(C(=O)/C=C/c2cccc(Cl)c2)c(O)c1CN1CCN(C)CC1")
1.3
>>> value_measured("COc1cc(OC)c(C(=O)/C=C/c2cccc(Br)c2)c(O)c1CN1CCN(C)CC1")
1.4
>>> value_measured("COc1cc(OC)c(C(=O)/C=C/c2ccccc2Br)c(O)c1CN1CCCCC1")
2.1
>>> value_measured("COc1cc(OC)c(C(=O)/C=C/c2ccccc2Br)c(O)c1CN1CCN(C)CC1")
1.2

---

Let's look at some compounds and their measured inhibition.
protocol-text: Inhibition of trypsin at 10 uM
endpoint-name: inhibition

>>> value_measured("COc1cc(OC)c(C(=O)/C=C/c2cccc(F)c2)c(O)c1CN1CCCC1")
"1.3%"
>>> value_measured("COc1cc(OC)c(C(=O)/C=C/c2cccc(Cl)c2)c(O)c1CN1CCCC1")
"0.9%"
>>> value_measured("COc1cc(OC)c(C(=O)/C=C/c2ccccc2F)c(O)c1CN1CCOCC1")
"2%"
>>> value_measured("COc1cc(OC)c(C(=O)/C=C/c2ccccc2Br)c(O)c1CN1CCCC1")
"1.5%"
>>> value_measured("COc1cc(OC)c(C(=O)/C=C/c2ccccc2Cl)c(O)c1CN1CCCCC1")
"0.7%"
>>> value_measured("COc1cc(OC)c(C(=O)/C=C/c2cccc(Cl)c2)c(O)c1CN1CCOCC1")
"1.1%"
>>> value_measured("COc1cc(OC)c(C(=O)/C=C/c2ccccc2Cl)c(O)c1CN1CCCC1")
"0.8%"
>>> value_measured("COc1cc(OC)c(C(=O)/C=C/c2cccc(Br)c2)c(O)c1CN1CCOCC1")
"1.2%"
>>> value_measured("COc1cc(OC)c(C(=O)/C=C/c2ccccc2Br)c(O)c1CN1CCOCC1")
"1.6%"

---

test-system: Prostaglandin G/H synthase 2 (Ovis aries)
protocol-text: Inhibition of ovine COX2 at 1 mM by colorimetric assay
Let's look at some compounds and their measured inhibition.
endpoint-name: inhibition (%)

>>> value_measured("COc1cc(OC)c(C(=O)/C=C/c2cccc(Br)c2)c(O)c1CN1CCOCC1")
22.4
>>> value_measured("COc1cc(OC)c(C(=O)/C=C/c2ccccc2Cl)c(O)c1CN1CCOCC1")
25.6
>>> value_measured("COc1cc(OC)c(C(=O)/C=C/c2cccc(Cl)c2)c(O)c1CN1CCN(C)CC1")
77.8
>>> value_measured("CC(=O)Oc1ccccc1C(=O)O")
35.1
>>> value_measured("COc1cc(OC)c(C(=O)/C=C/c2ccccc2Br)c(O)c1CN1CCOCC1")
42.3
>>> value_measured("COc1cc(OC)c(C(=O)/C=C/c2cccc(Br)c2)c(O)c1CN1CCN(C)CC1")
33.3
>>> value_measured("COc1cc(OC)c(C(=O)/C=C/c2ccccc2F)c(O)c1CN1CCCCC1")
19.9
>>> value_measured("COc1cc(OC)c(C(=O)/C=C/c2cccc(F)c2)c(O)c1CN1CCCCC1")
21.7
>>> value_measured("COc1cc(OC)c(C(=O)/C=C/c2ccccc2F)c(O)c1CN1CCOCC1")
27.1
>>> value_measured("COc1cc(OC)c(C(=O)/C=C/c2cccc(Cl)c2)c(O)c1CN1CCCC1")
29.6
